- runDescription: Volume of distribution at steady state in Wistar rat at 2 mg/kg, iv
- Type: ADME, organism-based
- Parameters: dose 2 mg/kg, route intravenous
- condition: in vivo, read-out: Vdss
endpoint: Vd (L/kg)
# unit: L/kg | format: bare number

Incoming: What measured Vd goes with `NCCCNC(=O)c1c(NC(=O)Cn2nc(C(F)(F)F)c3c2CCCC3)sc2c1CCCC2` ?
Outgoing: 3.8

---

- runDescription: Half life in Wistar rat at 2 mg/kg, iv
- Assay type: ADME, organism-based
- Design: dose 2 mg/kg, route intravenous
- condition: in vivo
endpoint: half-life (min)
# unit: min | format: bare number

Incoming: What measured half-life goes with `NCCCNC(=O)c1c(NC(=O)Cn2nc(C(F)(F)F)c3c2CCCC3)sc2c1CCCC2` ?
Outgoing: 192
